These data points were gathered from patent US20210101932A1.

# Tested System: T1, Recombinant human PD-L1 (Sino Biologicals or R&D systems), biotinylated (human, UniProt Q9NZQ7 19-238, limits assumed, biotinylated with EZ-Link Sulfo-NHS-LC-LC-Biotin)
# T1 construct: captured on a streptavidin CM5 chip for SPR; also called human PD-L1 protein; Biotinylated PD-L1
# T1 sequence (Q9NZQ7 19-238 limits assumed): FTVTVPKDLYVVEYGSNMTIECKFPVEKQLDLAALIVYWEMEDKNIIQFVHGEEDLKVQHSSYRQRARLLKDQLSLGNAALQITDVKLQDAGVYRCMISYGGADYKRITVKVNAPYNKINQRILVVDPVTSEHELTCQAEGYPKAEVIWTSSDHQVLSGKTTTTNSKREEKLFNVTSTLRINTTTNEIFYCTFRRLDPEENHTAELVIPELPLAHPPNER
# Protocol Text: SPR (Biacore), biotinylated PD-L1 on streptavidin chip
# Description: Biacore experiments were performed to determine kₐ) (M⁻¹s⁻¹), kd (s⁻¹), KD (nM) values of monomeric peptides binding to human PD-L1 protein. […] The protein was desalted to remove uncoupled biotin using spin columns into PBS. For analysis of binding, a Biacore 3000 instrument was used utilizing a CM5 sensor chip (GE Healthcare). Streptavidin was immobilized on the chip using standard amine-coupling chemistry at 25° C. with HBS-N (10 mM HEPES, 0.15 M NaCl, pH 7.4) as the running buffer. […]
*1 amine or outer side, *2 acyl side, *3 side chain or, on linkers, in order; H or OH if unused. Bridges are numbered along the chain shown (N, C = ends). Where no end group is shown, it is not given here. [ ]: non-standard residue; d: D form. TATA = O=C(CC[*:1])N1CN(C(=O)CC[*:2])CN(C(=O)CC[*:3])C1; Nva = CCC[C@H](N)C(=O)O
Property Name: pKd
Conceptually, pKd converts a concentration in mol/L into minus its log10.

INSERT INTO assay_data (binder, property_name, numeric_value) VALUES
  ('SDKCSXGWLTMCQKLHLCA ([Aib] as in SDKCS[Aib]GWLTMCQKLHLCA; Ci, Cii, Ciii cyclised on TATA) [BCY10054]', 'pKd', 7.51),
  ('SDKCSXGWLTMCQKLHLCA ([Abu] as in SDKCS[Abu]GWLTMCQKLHLCA; Ci, Cii, Ciii cyclised on TATA) [BCY10055]', 'pKd', 7.55);

Turning to the following binder.
Query string: Which value of pKd has been reported for SDKCSAGWLTMCQK[Nva]HLCA (linker 4-12-18 via TATA) [BCY10084] in the records?
Result string: 7.36
